target: Advanced glycosylation end product-specific receptor (Homo sapiens) (UniProt Q15109); assay: Inhibition of human RAGE-amyloid beta-42 interaction at 4 uM preincubated for 30 mins measured after 1 hr by FRET assay relative to control
Sequence (Q15109 whole entry): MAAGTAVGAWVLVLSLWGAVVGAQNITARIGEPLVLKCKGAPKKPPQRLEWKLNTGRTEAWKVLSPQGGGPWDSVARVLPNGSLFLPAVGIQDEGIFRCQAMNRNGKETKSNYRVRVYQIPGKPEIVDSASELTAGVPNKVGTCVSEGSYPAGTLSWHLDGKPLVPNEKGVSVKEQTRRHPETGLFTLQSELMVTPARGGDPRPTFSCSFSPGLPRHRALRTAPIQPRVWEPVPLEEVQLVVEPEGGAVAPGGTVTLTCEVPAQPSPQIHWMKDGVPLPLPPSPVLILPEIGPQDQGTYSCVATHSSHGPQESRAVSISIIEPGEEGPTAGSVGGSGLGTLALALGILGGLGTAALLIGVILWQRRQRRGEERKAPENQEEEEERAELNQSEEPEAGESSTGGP
The source made the active and inactive calls. The rule behind the calls is not given here.
experimental-endpoint: inhibition

These recorded examples may help you get a feel for the data.
Prompt: Determine its reported inhibition: "CN1CCC(Oc2ccc(-c3nc4ccc(Oc5ccc(Cl)cc5)cc4o3)cc2)CC1"
Response: 19.5%

Prompt: Determine its reported inhibition: "Clc1ccc(Oc2ccc3nc(-c4ccc(OC5CCNCC5)cc4)oc3c2)cc1"
Response: 20.6%

Prompt: Determine its reported inhibition: "CC(C)COC(=O)N1CCN(CCCOc2ccc(-c3nc4ccc(Oc5ccc(Cl)cc5)cc4o3)cc2)CC1"
Response: 41.2%

Prompt: Determine its reported inhibition: "FC(F)(F)c1ccc(Oc2ccc3nc(-c4ccc(OCCCN5CCOCC5)cc4)oc3c2)cc1"
Response: 32.1%

Prompt: Determine its reported inhibition: "OCCN1CCN(CCCOc2ccc(-c3nc4ccc(Oc5ccc(Cl)cc5)cc4o3)cc2)CC1"
Response: 3.3%

Prompt: Determine its reported inhibition: "Clc1ccc(Oc2ccc3nc(-c4ccc(OCCN5CCOCC5)cc4)oc3c2)cc1"
Response: 25.7%

Prompt: Determine its reported inhibition: "CC(C)N1CCC(Oc2ccc(-c3nc4ccc(Oc5ccc(Cl)cc5)cc4o3)cc2)CC1"
Response: 12.7%

Prompt: Determine its reported inhibition: "CCN1CCC(COc2ccc(-c3nc4ccc(Oc5ccc(Cl)cc5)cc4o3)cc2)CC1"
Response: 2.1%

Prompt: Determine its reported inhibition: "Clc1ccc(Oc2ccc3nc(-c4ccc(OCCCN5CCCCC5)cc4)oc3c2)cc1"
Response: 2.2%

Prompt: Determine its reported inhibition: "CCN(CC)CCCOc1ccc(-c2nc3ccc(Oc4cccc(C(F)(F)F)c4)cc3o2)cc1"
Response: 24.1%

I would be grateful if you could provide inhibition for each of the following entries.
1. CN1CCN(CCCOc2ccc(-c3nc4ccc(Oc5ccc(Cl)cc5)cc4o3)cc2)CC1
2. COC(=O)N1CCN(CCCOc2ccc(-c3nc4ccc(Oc5ccc(Cl)cc5)cc4o3)cc2)CC1
3. CC(C)(C)c1ccc(Oc2ccc3nc(-c4ccc(OCCCN5CCCCC5)cc4)oc3c2)cc1
4. Clc1ccc(Oc2ccc3nc(-c4ccc(OCCCN5CCNCC5)cc4)oc3c2)cc1
5. CCN(CC)CCCOc1ccc(-c2nc3ccc(Oc4ccc(C(C)(C)C)cc4)cc3o2)cc1
6. CC(C)(C)OC(=O)N[C@@H]1CCN(CCCOc2ccc(-c3nc4ccc(Oc5ccc(C(C)(C)C)cc5)cc4o3)cc2)C1
7. FC(F)(F)c1ccc(Oc2ccc3nc(-c4ccc(OCCCN5CCCCC5)cc4)oc3c2)cc1
8. CC(C)(C)OC(=O)N1CCN(CCCOc2ccc(-c3nc4ccc(Oc5cccc(C(F)(F)F)c5)cc4o3)cc2)CC1

Response:
["24.3%", "inactive", "inactive", "42.7%", "inactive", "26.8%", "44.3%", "22.8%"]

Prompt: Determine its reported inhibition: "CC(C)(C)OC(=O)N1CCC(COc2ccc(-c3nc4ccc(Oc5ccc(Cl)cc5)cc4o3)cc2)CC1"
Response: inactive
